# credit: PubChem BioAssay

Assay Explanation: binders from COS7 lysate, DM2A8 probe, primary screen, torsin A project, cell lysate, small-molecule microarray, fluorescence 635/667 (AID 1065)
Experimental Parameters: higher = more signal, COS7 lysate expressing mutant human TOR1A
Threshold rule: composite z-score greater than or equal to 0.2 is Satisfied; below that, Not satisfied.

Molecule	Class Name
CCCC[C@@H](O)C1=C(C)Cn2c(=O)n(-c3ccccc3)c(=O)n2[C@H]1CO	Not satisfied
O=C1O[C@H](c2ccccc2)[C@H](c2ccccc2)N2[C@H]1[C@@H](C(=O)O)[C@]1(C(=O)Nc3ccc(C#CC4(O)CCCCCC4)cc31)[C@H]2c1ccccc1OCCO	Satisfied
COC(=O)[C@]1(Cc2ccccc2CN=[N+]=[N-])N=C(c2ccc(OCCCO)cc2)O[C@@H]1c1ccccc1N=[N+]=[N-]	Not satisfied
CCCC=C(CCC)[C@@H](NC(=O)c1ccc(C(=O)OC)cc1)c1ccc(C(=O)OC)cc1	Not satisfied
COc1ccc(CCNC(=O)[C@@H]2c3ccccc3C(=O)N(Cc3cc(F)cc(C(F)(F)F)c3)[C@H]2c2ccc(CO)cc2)cc1	Satisfied
CCCCCN1CC=CC23O[C@@H]4/C=C\CCCOC(=O)C4[C@H]2C(=O)N(CCO)[C@@H]3C1=O (stereo not given in full)	Satisfied
C=CCNC(=O)[C@@H]1[C@H]2C(=O)O[C@H](c3ccccc3)[C@H](c3ccccc3)N2[C@H](c2ccc(OCCO)cc2)[C@@]12C(=O)Nc1ccc(C#CC3=CCCCC3)cc12	Satisfied
COCCOC(=O)N1C(=O)[C@@]2(c3cc(C#CCNC(N)=O)ccc31)[C@H](c1ccccc1OCCO)N1[C@H](c3ccccc3)[C@H](c3ccccc3)OC(=O)[C@H]1[C@@H]2C(=O)N1CCCCCCC1	Satisfied

Ask | Given the entry `C[C@]1(C(=O)O)c2ccccc2C(=O)N(Cc2cc(C(F)(F)F)cc(C(F)(F)F)c2)[C@H]1c1ccc(CO)cc1` , answer whether its composite z-score meets or surpasses 0.2.
Reply | Not satisfied

Ask | Given the entry `O=C1N(Cc2ccccc2)c2ccccc2C[C@@]12N=C(c1ccc(OCCCO)cc1)O[C@H]2c1ccccc1` , answer whether its composite z-score meets or surpasses 0.2.
Reply | Not satisfied

Ask | Given the entry CN1C(=O)C2C=CC(C(O)COCc3ccccc3)N(Nc3ccc([N+](=O)[O-])cc3[N+](=O)[O-])C2C1=O (stereo not given) , answer whether its composite z-score meets or surpasses 0.2.
Reply | Not satisfied

Ask | Given the entry `C=C(COC)C(=O)CC[C@@H](OC(=O)c1ccccc1-c1ccccc1C(=O)O)c1ccccc1OCCO` , answer whether its composite z-score meets or surpasses 0.2.
Reply | Satisfied
